Cited source for all entries: patent US7351731B2

Entries and their MIC C. albicans ATCC 14053, SDB
- System: C. albicans ATCC 14053
- assay.notes: MIC microdilution susceptibility testing, C. albicans in SDB
- Assay type: cell-based, Candida albicans
- condition.summary: SDB medium pH 5.6, 35-37° C., 24-48 h, average of three experiments

molecule	value.unit	censoring.qualifier	MIC C. albicans ATCC 14053, SDB
CCCCCCCCCCCCCC(=O)OC(Cn1cncn1)(Cn1cncn1)c1ccc(F)cc1F	µg/mL	=	718
CCC(Br)C(=O)OC(Cn1cncn1)(Cn1cncn1)c1ccc(F)cc1F (stereo not shown)	µg/mL	=	636
CCCCCCC(Br)C(=O)OC(Cn1cncn1)(Cn1cncn1)c1ccc(F)cc1F (stereo not shown)	µg/mL	=	111
O=C(OCCCl)OC(Cn1cncn1)(Cn1cncn1)c1ccc(F)cc1F	µg/mL	>	977
C[C@@H]1[C@H](O)[C@@H](C)/C=C/C=C/C=C/C=C/C=C/C=C/C=C/[C@H](O[C@@H]2O[C@H](C)[C@@H](O)[C@H](N)[C@@H]2O)C[C@@H]2O[C@](O)(C[C@@H](O)C[C@@H](O)[C@H](O)CC[C@@H](O)C[C@@H](O)CC(=O)O[C@H]1C)C[C@H](O)[C@H]2C(=O)O [AMB, amphotericin B, reference compound]	µg/mL	=	1.5
CCCC(Br)C(=O)OC(Cn1cncn1)(Cn1cncn1)c1ccc(F)cc1F (stereo not shown)	µg/mL	=	552
CCCCC(Br)C(=O)OC(Cn1cncn1)(Cn1cncn1)c1ccc(F)cc1F (stereo not shown)	µg/mL	=	492
CCCCCCCCCCCCC(Br)C(=O)OC(Cn1cncn1)(Cn1cncn1)c1ccc(F)cc1F (stereo not shown)	µg/mL	=	731
C=CCCCCCCCCCO [ω-Undecylenyl alcohol, reference compound]	µg/mL	=	110
O=C(CCCCCCCCCCBr)OC(Cn1cncn1)(Cn1cncn1)c1ccc(F)cc1F	µg/mL	=	198
CC(Br)C(=O)OC(Cn1cncn1)(Cn1cncn1)c1ccc(F)cc1F (stereo not shown)	µg/mL	=	656

---

Let's go through some recorded MIC values for C. neoformans ATCC 66031 together.

molecule	MIC
CCCCCCCCCCCCCC(=O)O [Tetradecanoic acid, reference compound]	> 529 µg/mL
CC(=O)O [Acetic acid, reference compound]	≥ 220 µg/mL
CCC(Br)C(=O)O (stereo not drawn) [2-Bromobutyric acid, reference compound]	> 513 µg/mL

---

- Tested on: C. albicans ATCC 14053
- assay.notes: MIC microdilution susceptibility testing, C. albicans in SDB
- Assay type: cell-based, Candida albicans
- condition.summary: SDB medium pH 5.6, 35-37° C., 24-48 h, average of three experiments
property.label: MIC C. albicans ATCC 14053, SDB

molecule	assay.value
CCCCCCCCCCC(Br)C(=O)OC(Cn1cncn1)(Cn1cncn1)c1ccc(F)cc1F (centres unmarked)	1,466 μg/mL
CC(=O)OC(Cn1cncn1)(Cn1cncn1)c1ccc(F)cc1F	1,420 μg/mL
O=C(OC(Cn1cncn1)(Cn1cncn1)c1ccc(F)cc1F)c1ccccc1O	>1,212 μg/mL
CC(=O)N[C@H]1[C@H](OP(=O)(OCCC#N)OC(Cn2cncn2)(Cn2cncn2)c2ccc(F)cc2F)O[C@H](COC(C)=O)[C@@H](OC(C)=O)[C@@H]1OC(C)=O (some centres unmarked)	>3,399 μg/mL
CC(=O)OC[C@H]1O[C@@H](OP(=O)(OCCC#N)OC(Cn2cncn2)(Cn2cncn2)c2ccc(F)cc2F)[C@H](OC(C)=O)[C@@H](OC(C)=O)[C@@H]1OC(C)=O (some centres unmarked)	1,999 μg/mL
